The entries below come with measured AUC(0-t) values attached.
- PROTOCOL NOTES: Plasma PK after IV administration
- REPORTED CONDITIONS: male, Ces1c−/− (JAX stock # 014096), mouse, plasma, iv, 54.4 μmole/kg

mol_smiles=N#C[C@@]1(c2ccc3c(N)ncnn23)O[C@H](CO)[C@@H](O)[C@H]1O test_result="25.1 µM·h"

AUC(0-t) lookup needed for `CCC(CC)COC(=O)[C@H](C)N[P@](=O)(OC[C@H]1O[C@@](C#N)(c2ccc3c(N)ncnn23)[C@H](O)[C@@H]1O)Oc1ccccc1` , thanks.
1.57 µM·h

* * *

- PROTOCOL NOTES: Plasma PK after IV administration
- REPORTED CONDITIONS: male, Ces1c−/− (JAX stock # 014096), mouse, plasma, iv, 54.4 μmole/kg
ENDPOINT NAME: AUC(0-inf) (µM·h)
Provide only the numeric value, understood in µM·h.

mol_smiles=CCC(CC)COC(=O)[C@H](C)N[P@](=O)(OC[C@H]1O[C@@](C#N)(c2ccc3c(N)ncnn23)[C@H](O)[C@@H]1O)Oc1ccccc1 test_result=1.58

Please examine the following record next.
AUC(0-inf) lookup needed for `N#C[C@@]1(c2ccc3c(N)ncnn23)O[C@H](CO)[C@@H](O)[C@H]1O` , thanks.
26.3
